test_summary: Stability in mouse serum assessed as half life
Format: ADME, cell-free
observation_type: half-life (h)

smiles_entry	observed_measurement
CC(C)C[C@H](/C=C/CNC(=O)[C@H](Cc1ccccc1)NC(=O)c1ccc(F)cc1)C(=O)N[C@@H](CCCN=C(N)N)C(=O)N[C@@H](Cc1c[nH]c2ccccc12)C(N)=O	0.633
CC(C)C[C@@H](C[C@@H](O)CNC(=O)[C@H](Cc1ccccc1)NC(=O)c1ccc(F)cc1)C(=O)N[C@@H](CCCN=C(N)N)C(=O)N[C@@H](Cc1c[nH]c2ccccc12)C(N)=O	7.83
CC(C)C[C@H](C[C@H](O)CNC(=O)[C@H](Cc1ccccc1)NC(=O)c1ccc(F)cc1)C(=O)N[C@@H](CCCN=C(N)N)C(=O)N[C@@H](Cc1c[nH]c2ccccc12)C(N)=O	0.583
CC(C)C/C(=C\[C@@H](O)CNC(=O)[C@H](Cc1ccccc1)NC(=O)c1ccc(F)cc1)C(=O)N[C@@H](CCCNC(=N)N)C(=O)N[C@@H](Cc1c[nH]c2ccccc12)C(N)=O	1
CC(C)C[C@H](NC(=O)CNC(=O)[C@H](Cc1ccccc1)NC(=O)c1ccc(F)cc1)C(=O)N[C@@H](CCCN=C(N)N)C(=O)N[C@@H](Cc1c[nH]c2ccccc12)C(N)=O	0.11

1. CC(C)C/C(=C\[C@H](O)CNC(=O)[C@H](Cc1ccccc1)NC(=O)c1ccc(F)cc1)C(=O)N[C@@H](CCCN=C(N)N)C(=O)N[C@@H](Cc1c[nH]c2ccccc12)C(N)=O
2. CC(C)C[C@@H](C[C@H](O)CNC(=O)[C@H](Cc1ccccc1)NC(=O)c1ccc(F)cc1)C(=O)N[C@@H](CCCNC(=N)N)C(=O)N[C@@H](Cc1c[nH]c2ccccc12)C(N)=O
Prompt: Smaller half-life value, 1 vs 2 ? Mark your selection by writing its label.
Response: 2
(2: 2 h, 1: 18.3 h)
